- subjectOfTest: T1, CD96 extracellular region with His tag (CD96-His) (human, UniProt P40200 22-519)
- T1 construct: also called CD96-ECD-His; Bio-CD96-His (biotin-labelled form)
- T1 sequence: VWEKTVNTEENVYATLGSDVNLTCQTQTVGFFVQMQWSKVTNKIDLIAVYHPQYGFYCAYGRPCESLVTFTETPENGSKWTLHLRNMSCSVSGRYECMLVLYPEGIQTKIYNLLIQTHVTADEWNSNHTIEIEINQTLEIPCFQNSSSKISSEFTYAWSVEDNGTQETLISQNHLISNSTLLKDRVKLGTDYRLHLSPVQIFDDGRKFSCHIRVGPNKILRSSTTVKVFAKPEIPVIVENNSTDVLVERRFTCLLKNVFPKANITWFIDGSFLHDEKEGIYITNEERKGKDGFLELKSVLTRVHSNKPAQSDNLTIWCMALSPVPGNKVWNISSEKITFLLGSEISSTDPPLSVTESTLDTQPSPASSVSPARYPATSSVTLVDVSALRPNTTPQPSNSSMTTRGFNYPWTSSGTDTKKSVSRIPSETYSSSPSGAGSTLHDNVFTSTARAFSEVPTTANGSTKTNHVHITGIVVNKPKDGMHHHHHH
- testDescription: SPR (Biacore), antibody captured, CD96-ECD-His as mobile phase
- Description: Protein A biosensor chip was used to capture antibodies to be tested, then CD96 antigen was flowed on the surface of the chip, and real time reaction signal was detected by Biacore to obtain the binding and dissociation curve. After the dissociation of each experimental cycle was completed, the biosensor chip was washed and regenerated with a glycine-hydrochloric acid regeneration solution (pH 1.5).

{"binder": "h1722-005 (antibody, V domains shown, Only variable regions are tied to this name) VH: EVQLVQSGAEVKKPGSSVKVSCKASGGTFSDYWMHWVRQAPGQGLEWMGMLHPNSGTTSFNEKFKIRVTITADKSTSTAYMELSSLRSEDTAVYYCARDYSGPFAYWGQGTLVTVSS VL: DIQMTQSPSSLSASVGDRVTITCSASSSVNYIHWYQQKPGKAPKRWIYDTSKLASGVPSRFSGSGSGTDFTLTISSLQPEDFATYYCQQWRSNPLTFGQGTKLEIK", "Kd": "9.87 nM"}
{"binder": "h1719-014 (antibody, V domains shown, Only variable regions are tied to this name; also called M719-014) VH: EVTLKESGPVLVKPTETLTLTCTVSGFSLSSYGVSWVRQPPGKGLEWLGVIWGDGNTNYHSVLISRLTISKDTSKSQVVLTLTNMDPVDTATYYCAKNYYYGSRYGYPLDYWGQGTTVTVSS VL: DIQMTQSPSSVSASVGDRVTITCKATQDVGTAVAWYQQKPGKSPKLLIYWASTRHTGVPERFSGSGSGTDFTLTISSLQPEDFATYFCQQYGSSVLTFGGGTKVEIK", "Kd": "14.9 nM"}
{"binder": "ch1719 (antibody, human IgG4 S228P, kappa, V domains shown, also called chimeric antibody corresponding to m1719) VH: QVQLKESGPGLVAPSQSLSITCTVSGFSLISYGVSWVRQPPGKGLEWLGVIWGDGNTNYHSVLISRLSIRKDDSKSQVFLKLNSLQTDDTATYYCAKNNYYGSRYGYPMDYWGQGTSVTVSS VL: DIVMTQSHKFMSTSVGDRVSITCKATQDVGTAVAWYQQKPGHSPKLLIYWASTRHTGVPERFTGSGSGTDFTLTIDNVQSEDLADYFCQQYGSSVLTFGAGTKVELRR", "Kd": "9.74 nM"}
{"binder": "h1721-012 (antibody, V domains shown, also called h1721-0012) VH: EVTLKESGPVLVKPTETLTLTCTVSGFSLSSYGVNWVRQPPGKGLEWLGVIWGDGSTNYHSALISRLTISKDTSKSQVVLTLTNMDPVDTATYYCAKNYFYGSRYGYAMDSWGQGTTVTVSS VL: DIQMTQSPSSLSASVGDRVTITCRASENIYSSLAWYQQKPGKSPKLLVYNAKTLIEGVPSRFSGSGSGTDYTLTISSLQPEDFATYYCQHHYGTPYTFGGGTKVEIK", "Kd": "2.14 nM"}
{"binder": "h1721-009 (antibody, V domains shown, Only variable regions are tied to this name) VH: EVTLKESGPVLVKPTETLTLTCTVSGFSLSSYGVNWIRQPPGKALEWLAVIWGDGSTNYHSALISRLTISKDTSKSQVVLTMTNMDPVDTATYYCARNYFYGSRYGYAMDSWGQGTTVTVSS VL: DIQMTQSPSSLSASVGDRVTITCRASENIYSSLAWYQQKPGKSPKLLVYNAKTLIEGVPSRFSGSGSGTDYTLTISSLQPEDFATYYCQHHYGTPYTFGGGTKVEIK", "Kd": "2.01 nM"}

Each recorded value in this set is attributed to patent US20200347130A1.
